species on record: Rattus norvegicus; experiment: Open TG-GATES - Regimen: Single; format: toxicity, organism-based, Sprague-Dawley; parameters: regimen Single, gender Male, age 6 weeks; conditions: in vivo, po, 100 mg/kg, 9 h, tissue Plasma, route gavage, dose level High
Consider the following compounds; for each one, report its BUN.

# annotated cases, reported BUN shown
# sample.smiles, BUN
rows = [
    ("CN(C)CCCN1c2ccccc2CCc2ccccc21", "5.2 mg/dL"),
    ("CN(C)CCN(Cc1cccs1)c1ccccn1", "11 mg/dL"),
    ("CC1=C(/C=C/C(C)=C/C=C/C(C)=C/CO)C(C)(C)CCC1", "9.6 mg/dL"),
]

Which BUN value is on record for `CN(C)CCCN1c2ccccc2CCc2ccc(Cl)cc21` ?
6.4 mg/dL
